# assayed.target: UniProt:P35414
# Sequence (P35414 whole entry, looked up): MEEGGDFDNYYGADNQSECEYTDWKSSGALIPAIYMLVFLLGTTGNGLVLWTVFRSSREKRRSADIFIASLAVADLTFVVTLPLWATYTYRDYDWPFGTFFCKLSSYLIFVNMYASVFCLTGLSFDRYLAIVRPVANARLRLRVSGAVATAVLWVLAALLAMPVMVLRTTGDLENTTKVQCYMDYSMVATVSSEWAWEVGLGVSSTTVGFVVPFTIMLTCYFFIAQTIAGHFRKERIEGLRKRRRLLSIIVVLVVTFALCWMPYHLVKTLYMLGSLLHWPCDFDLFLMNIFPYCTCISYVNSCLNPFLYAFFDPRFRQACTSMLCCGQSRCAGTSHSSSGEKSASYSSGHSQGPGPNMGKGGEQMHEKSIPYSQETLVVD
# experimental.details: apelin receptor activator analogs – cell-based, luminescence, SAR follow-up (AID 488811)
# condition.info: CHO-K1 AGTRL-1 PathHunter beta-arrestin
Activity calls are given as the source filed them.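 The calls were made as follows: active = mean EC50 below 10 µM; inactive = the rest.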
Outcome codes: active, inactive

compound	class
CC1=C/C(=N/OS(=O)(=O)c2ccc(C)cc2)C(C(C)C)=CC1=O	active
CCc1c(O)nc(SC)n(C2CCCCC2)c1=O	inactive
C=CCn1c(SCc2ccccc2)nc(O)c(CC)c1=O	inactive
Cc1cc(C)n2nc3nc(N4CCOCC4)nc(-c4ccccc4)c3c2n1	inactive
COc1ccccc1-n1c(SCC(=O)c2ccccc2)nc(O)cc1=O	inactive
C=CCSc1nc(O)c(CC)c(=O)n1-c1ccc(C)cc1	inactive
CC1=CC(=O)C=C/C1=N\OS(=O)(=O)c1ccc(C)cc1	inactive
CCc1c(O)nc(SCc2ccccc2)n(C(C)CC)c1=O (centres undefined)	inactive
C=CCSc1nc(O)c(CC)c(=O)n1C1CCCCC1	inactive
C=CCSc1nc(O)c(CC)c(=O)n1C(C)CC (centres undefined)	inactive
Cc1ccc(S(=O)(=O)ON=C2C=CC(=O)C=C2)cc1	inactive
CC1=C/C(=N/OS(=O)(=O)c2ccccc2)C(C)=CC1=O	active
CCN1/C(=C\C=C2/SC(=S)N(C)C2=O)Sc2ccccc21	inactive
O=S(=O)(Nc1nc(-c2ccccc2)cs1)c1ccc(Br)cc1	inactive
CC1=C(C)C(=NOS(=O)(=O)c2ccc(C)cc2)C=CC1=O	inactive
CCc1c(O)nc(SC)n(C(C)CC)c1=O (centres undefined)	inactive
CC1=CC(=O)C(C(C)C)=C/C1=N/OS(=O)(=O)c1ccccc1	active
CC1=C/C(=N/OS(=O)(=O)c2ccc(C)cc2)C=CC1=O	inactive
CC1=C/C(=N\OS(=O)(=O)c2ccc(Cl)cc2)C=CC1=O	inactive
CN(C)CCSc1nc(O)c(-c2ccccc2)c(=O)n1-c1ccccc1	inactive
CSc1nc(=O)cc(N)n1-c1ccc(C)cc1	inactive
CCc1c(O)nc(SC(C)CC)n(C(C)CC)c1=O (centres undefined)	inactive
Cc1ccc(S(=O)(=O)Nc2nc(-c3ccccc3)cs2)cc1	inactive
CCN1C(c2ccccc2)=C(c2ccccc2)S/C1=C/C=C1\SC(=S)N(C)C1=O	active

====

# assayed.target: Apelin receptor (Homo sapiens)
# experimental.details: apelin receptor activator analogs – cell-based, luminescence, SAR follow-up (AID 488811)
# condition.info: CHO-K1 AGTRL-1 PathHunter beta-arrestin
Activity calls are given as the source filed them.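 The calls were made as follows: active = mean EC50 below 10 µM; inactive = the rest.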
metric.name: EC50

structure.string	metric.name	measured.result
CC1=CC(=NOS(=O)(=O)c2ccccc2)C(C(C)C)=CC1=O	EC50	7.43 µM
CCc1c(O)nc(SCc2ccccc2)n(C2CCCCC2)c1=O	EC50	> 79 µM (inactive)
CCSc1nc(O)c(CC)c(=O)n1C1CCCCC1	EC50	> 79 µM (inactive)
CC1=CC(=NOS(=O)(=O)c2ccc(Cl)cc2)C=C(C)C1=O	EC50	2.9 µM
CC1=CC(=O)C=C(C)C1=NOS(=O)(=O)c1ccccc1	EC50	> 79 µM (inactive)
COc1ccc(S(=O)(=O)ON=C2C=C(C)C(=O)C(C)=C2)cc1	EC50	2.56 µM
CC1=CC(=O)C(C(C)C)=CC1=NOS(=O)(=O)c1ccccc1	EC50	5.74 µM
CCCCSc1nnc(NC(=O)CSc2nc3ncccc3[nH]2)s1	EC50	> 79 µM (inactive)
CCCCSc1nc(O)c(CC)c(=O)n1C1CCCCC1	EC50	> 79 µM (inactive)
CC1=CC(=NOS(=O)(=O)c2ccc(C)cc2)C=C(C)C1=O	EC50	2.52 µM
CCN1/C(=C/C(=O)c2sc(=S)n(CC)c2O)Sc2ccccc21	EC50	> 79 µM (inactive)
